- test.target: clot-bound thrombin (Homo sapiens)
- assay.remarks: inhibition of plasma clot-bound thrombin (Methods M1, M3)
- assay.conditions: clot from platelet-rich human plasma; Tos-Gly-Pro-Arg-pNA substrate
Square brackets hold non-standard residues; d marks the D form. Peptide text beside a SMILES is read from it. * marks the point of attachment. dCba = N[C@H](CC1CCC1)C(=O)O; Moc = COC(=O)*
readout: pIC50
// pIC50 here means minus log10 of the molar concentration (mol/L)

Consider the molecule "CCOC(=O)N[C@H](CC1CCCC1)C(=O)N1CCC[C@H]1C(=O)N[C@H](C=O)CCCNC(=N)N" and give its recorded pIC50.
6.31

Consider the molecule "CCOC(=O)N[C@H](CC1CCC1)C(=O)N1CCC[C@H]1C(=O)N[C@H](C=O)CCCNC(=N)N" and give its recorded pIC50.
6.41

Consider the molecule COC(=O)N[C@H](CC1CCC1)C(=O)N1CCC[C@H]1C(=O)N[C@H](C=O)CCCNC(=N)N [Example 2] (Moc-[dCba]-Pro-Arg-aldehyde) and give its recorded pIC50.
6.17

###

- test.target: thrombin (Homo sapiens, UniProt P00734)
- assay.remarks: thrombin time (TT) plasma clotting test
- Assay type: biochemical
- assay.conditions: Table 2; concentration prolonging clotting time twofold; read-out: A: anticoagulation IC50, TT
Field: IC50. Provide a value for each of the molecules that follow.
Give the value; after it, write the unit.

Consider the molecule CC(C)(C)OC(=O)N[C@H](Cc1ccccc1)C(=O)N1CCC[C@H]1C(=O)N[C@H](C=O)CCCNC(=N)N [Example C5, BOC-D-Phe-Pro-Arg-H] and give its recorded IC50.
200 nM

Consider the molecule COC(=O)N[C@H](Cc1ccccc1)C(=O)N1CCC[C@H]1C(=O)N[C@H](C=O)CCCNC(=N)N [Example C7] and give its recorded IC50.
200 nM

###

- test.target: isolated human fXa (Homo sapiens, UniProt P00742)
- Construct: The isolated active factor (e.g. thrombin, fXa) and its chromogen or fluorogen peptide-amide substrate are reacted; purchased SIGMA
- Sequence (P00742 235-488 limits assumed): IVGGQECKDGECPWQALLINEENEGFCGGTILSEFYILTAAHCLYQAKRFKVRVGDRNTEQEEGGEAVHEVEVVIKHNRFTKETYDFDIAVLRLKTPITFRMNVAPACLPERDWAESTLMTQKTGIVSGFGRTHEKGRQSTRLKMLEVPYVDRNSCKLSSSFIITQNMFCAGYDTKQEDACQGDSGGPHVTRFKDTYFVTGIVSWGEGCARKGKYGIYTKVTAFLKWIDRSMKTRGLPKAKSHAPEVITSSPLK
- Sequence (P00742 41-179 partner limits assumed): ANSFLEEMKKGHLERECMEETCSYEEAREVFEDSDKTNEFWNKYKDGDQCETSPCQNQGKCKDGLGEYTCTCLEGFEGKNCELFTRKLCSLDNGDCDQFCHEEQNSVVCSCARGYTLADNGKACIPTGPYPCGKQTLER
- assay.remarks: fXa inhibition in solution, amidolytic method on Bz-Ile-Glu-Gly-Arg-pNA chromogen substrate (Method M6)
- Format: biochemical
- assay.conditions: Table 3; isolated human fXa, Bz-Ile-Glu-Gly-Arg-pNA; read-out: B: fXa inhibiting IC50
Square brackets hold non-standard residues; d marks the D form. Peptide text beside a SMILES is read from it. * marks the point of attachment. dCba = N[C@H](CC1CCC1)C(=O)O; Moc = COC(=O)*
Decision: IC50 beneath 70 nM gives t; IC50 meeting or exceeding 70 nM gives f.

is_below(IC50, 70 nM) for CCOC(=O)N[C@H](Cc1ccccc1)C(=O)N1CCC[C@H]1C(=O)N[C@H](C=O)CCCNC(=N)N [Example C6] ?
f

is_below(IC50, 70 nM) for CC(C)OC(=O)N[C@H](CC1CCC1)C(=O)N1CCC[C@H]1C(=O)N[C@H](C=O)CCCNC(=N)N [Example 3] ?
t

is_below(IC50, 70 nM) for COC(=O)N[C@H](CC1CCC1)C(=O)N1CCC[C@H]1C(=O)N[C@H](C=O)CCCNC(=N)N [Example 2] (Moc-[dCba]-Pro-Arg-aldehyde) ?
f

is_below(IC50, 70 nM) for CCOC(=O)N[C@H](CC1CCCC1)C(=O)N1CCC[C@H]1C(=O)N[C@H](C=O)CCCNC(=N)N [Example 4] ?
t

is_below(IC50, 70 nM) for CCOC(=O)NC(C(=O)N1CCC[C@H]1C(=O)N[C@H](C=O)CCCNC(=N)N)C1CCC1 (mixture of isomers) [Example C10] ?
f

is_below(IC50, 70 nM) for CCOC(=O)N[C@H](CC1CCC1)C(=O)N1CCC[C@H]1C(=O)N[C@H](C=O)CCCNC(=N)N [Example 1] ?
t

is_below(IC50, 70 nM) for CCOC(=O)NC(CC1CCCC1)C(=O)N1CCC[C@H]1C(=O)N[C@H](C=O)CCCNC(=N)N (mixture of isomers) [Example C9] ?
t

###

Field: B: relative efficiency, UK. Provide a value for each of the compounds that follow.
- test.target: UniProt:P00749
- assay.remarks: fibrin-plate method, plasmin formation induced by urokinase
- Format: biochemical
- assay.conditions: related to the activity of C1 (1/IC50 = 1)
Square brackets hold non-standard residues; d marks the D form. Peptide text beside a SMILES is read from it. * marks the point of attachment. dCba = N[C@H](CC1CCC1)C(=O)O; Moc = COC(=O)*
The answer should be a number; do not append a unit.

Consider the compound "CCOC(=O)N[C@H](CC1CCCC1)C(=O)N1CCC[C@H]1C(=O)N[C@H](C=O)CCCNC(=N)N" and give its recorded B: relative efficiency, UK.
1.8

Consider the compound CN[C@H](Cc1ccccc1)C(=O)N1CCC[C@H]1C(=O)N[C@H](C=O)CCCNC(=N)N [Example C1, D-MePhe-Pro-Arg-H, reference compound] and give its recorded B: relative efficiency, UK.
1.0

Consider the compound "CCOC(=O)N[C@H](CC1CCC1)C(=O)N1CCC[C@H]1C(=O)N[C@H](C=O)CCCNC(=N)N" and give its recorded B: relative efficiency, UK.
0.7

Consider the compound COC(=O)N[C@H](CC1CCC1)C(=O)N1CCC[C@H]1C(=O)N[C@H](C=O)CCCNC(=N)N [Example 2] (Moc-[dCba]-Pro-Arg-aldehyde) and give its recorded B: relative efficiency, UK.
0.5

Consider the compound "CC(C)(C)OC(=O)N[C@H](Cc1ccccc1)C(=O)N1CCC[C@H]1C(=O)N[C@H](C=O)CCCNC(=N)N" and give its recorded B: relative efficiency, UK.
27.3

###

- test.target: fibrin gel-bound thrombin (Homo sapiens, UniProt P00734)
- assay.remarks: inhibition of fibrin gel-bound thrombin (Methods M4, M5)
- assay.conditions: human fibrinogen clotted with human thrombin; Tos-Gly-Pro-Arg-pNA substrate
Square brackets hold non-standard residues; d marks the D form. Peptide text beside a SMILES is read from it. * marks the point of attachment. dCba = N[C@H](CC1CCC1)C(=O)O; Moc = COC(=O)*
Field: IC50. Provide a value for each of the molecules that follow.
Number only, in nM; omit the unit.

Consider the molecule CCOC(=O)N[C@H](CC1CCCC1)C(=O)N1CCC[C@H]1C(=O)N[C@H](C=O)CCCNC(=N)N [Example 4] and give its recorded IC50.
670

Consider the molecule COC(=O)N[C@H](CC1CCC1)C(=O)N1CCC[C@H]1C(=O)N[C@H](C=O)CCCNC(=N)N [Example 2] (Moc-[dCba]-Pro-Arg-aldehyde) and give its recorded IC50.
640

Consider the molecule CCOC(=O)N[C@H](CC1CCC1)C(=O)N1CCC[C@H]1C(=O)N[C@H](C=O)CCCNC(=N)N [Example 1] and give its recorded IC50.
320

###

Field: IC50. Provide a value for each of the compounds that follow.
- test.target: thrombin (Homo sapiens)
- assay.remarks: thrombin time (TT) plasma clotting test
- Format: biochemical
- assay.conditions: Table 3; twofold prolongation compared to control; read-out: A: anticoagulant IC50, TT
- Protocol: Anticoagulant activity (i.e. inhibition of the proteolytic reactions in the process) is measured by anticoagulant tests, e.g. in the thrombin time (TT), activated partial thromboplastin time (APTT) and prothrombin time (PT) tests [E. J. W. Bovie et al., Mayo Clinic Laboratory Manual of Haemostasis; W. B. Saunders Co., Philadelphia (1971)]. Plasma, inhibited in spontaneous coagulation, e.g. citrate-plasma, is made to coagulate and the required coagulation time is measured. […]
Square brackets hold non-standard residues; d marks the D form. Peptide text beside a SMILES is read from it. * marks the point of attachment. dCba = N[C@H](CC1CCC1)C(=O)O; Moc = COC(=O)*

Consider the compound COC(=O)N[C@H](CC1CCC1)C(=O)N1CCC[C@H]1C(=O)N[C@H](C=O)CCCNC(=N)N [Example 2] (Moc-[dCba]-Pro-Arg-aldehyde) and give its recorded IC50.
110 nM

Consider the compound CCOC(=O)NC(CC1CCCC1)C(=O)N1CCC[C@H]1C(=O)N[C@H](C=O)CCCNC(=N)N (mixture of isomers) [Example C9] and give its recorded IC50.
260 nM

Consider the compound CCOC(=O)N[C@H](CC1CCC1)C(=O)N1CCC[C@H]1C(=O)N[C@H](C=O)CCCNC(=N)N [Example 1] and give its recorded IC50.
110 nM

Consider the compound CCOC(=O)NC(C(=O)N1CCC[C@H]1C(=O)N[C@H](C=O)CCCNC(=N)N)C1CCC1 (mixture of isomers) [Example C10] and give its recorded IC50.
880 nM

###

Field: pIC50. Provide a value for each of the molecules that follow.
- test.target: isolated human fXa (Homo sapiens, UniProt P00742)
- Construct: The isolated active factor (e.g. thrombin, fXa) and its chromogen or fluorogen peptide-amide substrate are reacted; purchased SIGMA
- assay.remarks: fXa inhibition in solution, amidolytic method on Bz-Ile-Glu-Gly-Arg-pNA chromogen substrate (Method M6)
- Format: biochemical
- assay.conditions: Table 2; isolated human fXa, Bz-Ile-Glu-Gly-Arg-pNA; read-out: B: fXa inhibiting effect IC50
// pIC50 here means minus log10 of the molar concentration (mol/L)

# return pIC50 of "COC(=O)N[C@H](Cc1ccccc1)C(=O)N1CCC[C@H]1C(=O)N[C@H](C=O)CCCNC(=N)N" (system: isolated human fXa (Homo sapiens, UniProt P00742))
6.89

# return pIC50 of "CC(C)(C)OC(=O)N[C@H](Cc1ccccc1)C(=O)N1CCC[C@H]1C(=O)N[C@H](C=O)CCCNC(=N)N" (system: isolated human fXa (Homo sapiens, UniProt P00742))
6.04
